- experimental.target: T1, cynomolgus monkey BCMA (cynomolgus monkey, UniProt A0A2K5UD97 1-53)
- T1 construct: Soluble analyte in SPR; construct not described; also called cyBCMA; Cyno BCMA
- T1 sequence (A0A2K5UD97 entry or part of it): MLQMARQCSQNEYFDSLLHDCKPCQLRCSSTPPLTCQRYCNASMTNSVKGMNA
- measurement.description: SPR, IgG immobilised, 25 C
readout.kind: T ½ (min)
# number only, unit min dropped from output

Answer with reported T ½ of L1.LGF/L3.KW/H3.AP (antibody, V domains shown, IgG) VH: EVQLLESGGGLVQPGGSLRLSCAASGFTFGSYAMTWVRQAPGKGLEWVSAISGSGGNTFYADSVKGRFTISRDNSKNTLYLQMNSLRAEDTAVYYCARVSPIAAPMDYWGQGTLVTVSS VL: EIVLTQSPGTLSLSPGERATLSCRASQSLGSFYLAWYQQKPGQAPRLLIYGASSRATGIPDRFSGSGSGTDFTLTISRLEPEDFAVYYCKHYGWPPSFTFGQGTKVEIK 0.7

Answer with reported T ½ of L1.LGF/L3.NY/P6E01 (antibody, V domains shown, IgG) VH: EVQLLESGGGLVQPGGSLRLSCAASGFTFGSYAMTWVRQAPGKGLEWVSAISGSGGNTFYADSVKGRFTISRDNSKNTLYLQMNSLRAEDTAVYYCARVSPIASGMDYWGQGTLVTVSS VL: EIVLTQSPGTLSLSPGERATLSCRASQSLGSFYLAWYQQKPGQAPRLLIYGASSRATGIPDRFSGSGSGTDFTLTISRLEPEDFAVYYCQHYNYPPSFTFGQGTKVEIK 1.1

Answer with reported T ½ of L3.KW/P6E01 (antibody, V domains shown, IgG) VH: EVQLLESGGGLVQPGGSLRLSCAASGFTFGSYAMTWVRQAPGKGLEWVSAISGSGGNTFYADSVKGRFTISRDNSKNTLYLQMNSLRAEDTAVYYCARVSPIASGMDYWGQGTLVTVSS VL: EIVLTQSPGTLSLSPGERATLSCRASQSVSSSYLAWYQQKPGQAPRLLIYGASSRATGIPDRFSGSGSGTDFTLTISRLEPEDFAVYYCKHYGWPPSFTFGQGTKVEIK 4.5

Answer with reported T ½ of L1.GDF/L3.PY/H3.AQ (antibody, V domains shown, IgG) VH: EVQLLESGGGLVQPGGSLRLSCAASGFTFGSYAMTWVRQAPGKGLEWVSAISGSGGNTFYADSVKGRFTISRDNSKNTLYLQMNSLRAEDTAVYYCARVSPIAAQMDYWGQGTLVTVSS VL: EIVLTQSPGTLSLSPGERATLSCRASQSVGDFYLAWYQQKPGQAPRLLIYGASSRATGIPDRFSGSGSGTDFTLTISRLEPEDFAVYYCQHYPYPPSFTFGQGTKVEIK 0.7

Answer with reported T ½ of L1.GDF/L3.KW/H3.AP (antibody, V domains shown, IgG) VH: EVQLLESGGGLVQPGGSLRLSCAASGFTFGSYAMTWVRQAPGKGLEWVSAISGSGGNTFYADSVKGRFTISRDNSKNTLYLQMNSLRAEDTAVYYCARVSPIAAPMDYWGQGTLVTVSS VL: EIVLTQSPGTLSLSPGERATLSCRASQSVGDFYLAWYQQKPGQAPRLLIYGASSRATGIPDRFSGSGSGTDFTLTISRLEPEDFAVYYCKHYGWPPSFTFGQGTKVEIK 0.6

Answer with reported T ½ of L1.LGF/L3.PY/H3.AQ (antibody, V domains shown, IgG) VH: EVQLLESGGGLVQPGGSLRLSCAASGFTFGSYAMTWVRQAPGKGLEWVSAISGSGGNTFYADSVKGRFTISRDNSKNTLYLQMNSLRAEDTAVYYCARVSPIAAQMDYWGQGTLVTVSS VL: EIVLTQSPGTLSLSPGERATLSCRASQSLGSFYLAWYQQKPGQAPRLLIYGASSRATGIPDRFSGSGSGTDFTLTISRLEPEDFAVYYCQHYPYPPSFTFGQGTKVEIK 2.4
